EXPERIMENTAL_SYSTEM: Human C3 (Complement tech cat #A113c) (human, UniProt P01024 23-1663)
Sequence (P01024 23-1663 limits assumed): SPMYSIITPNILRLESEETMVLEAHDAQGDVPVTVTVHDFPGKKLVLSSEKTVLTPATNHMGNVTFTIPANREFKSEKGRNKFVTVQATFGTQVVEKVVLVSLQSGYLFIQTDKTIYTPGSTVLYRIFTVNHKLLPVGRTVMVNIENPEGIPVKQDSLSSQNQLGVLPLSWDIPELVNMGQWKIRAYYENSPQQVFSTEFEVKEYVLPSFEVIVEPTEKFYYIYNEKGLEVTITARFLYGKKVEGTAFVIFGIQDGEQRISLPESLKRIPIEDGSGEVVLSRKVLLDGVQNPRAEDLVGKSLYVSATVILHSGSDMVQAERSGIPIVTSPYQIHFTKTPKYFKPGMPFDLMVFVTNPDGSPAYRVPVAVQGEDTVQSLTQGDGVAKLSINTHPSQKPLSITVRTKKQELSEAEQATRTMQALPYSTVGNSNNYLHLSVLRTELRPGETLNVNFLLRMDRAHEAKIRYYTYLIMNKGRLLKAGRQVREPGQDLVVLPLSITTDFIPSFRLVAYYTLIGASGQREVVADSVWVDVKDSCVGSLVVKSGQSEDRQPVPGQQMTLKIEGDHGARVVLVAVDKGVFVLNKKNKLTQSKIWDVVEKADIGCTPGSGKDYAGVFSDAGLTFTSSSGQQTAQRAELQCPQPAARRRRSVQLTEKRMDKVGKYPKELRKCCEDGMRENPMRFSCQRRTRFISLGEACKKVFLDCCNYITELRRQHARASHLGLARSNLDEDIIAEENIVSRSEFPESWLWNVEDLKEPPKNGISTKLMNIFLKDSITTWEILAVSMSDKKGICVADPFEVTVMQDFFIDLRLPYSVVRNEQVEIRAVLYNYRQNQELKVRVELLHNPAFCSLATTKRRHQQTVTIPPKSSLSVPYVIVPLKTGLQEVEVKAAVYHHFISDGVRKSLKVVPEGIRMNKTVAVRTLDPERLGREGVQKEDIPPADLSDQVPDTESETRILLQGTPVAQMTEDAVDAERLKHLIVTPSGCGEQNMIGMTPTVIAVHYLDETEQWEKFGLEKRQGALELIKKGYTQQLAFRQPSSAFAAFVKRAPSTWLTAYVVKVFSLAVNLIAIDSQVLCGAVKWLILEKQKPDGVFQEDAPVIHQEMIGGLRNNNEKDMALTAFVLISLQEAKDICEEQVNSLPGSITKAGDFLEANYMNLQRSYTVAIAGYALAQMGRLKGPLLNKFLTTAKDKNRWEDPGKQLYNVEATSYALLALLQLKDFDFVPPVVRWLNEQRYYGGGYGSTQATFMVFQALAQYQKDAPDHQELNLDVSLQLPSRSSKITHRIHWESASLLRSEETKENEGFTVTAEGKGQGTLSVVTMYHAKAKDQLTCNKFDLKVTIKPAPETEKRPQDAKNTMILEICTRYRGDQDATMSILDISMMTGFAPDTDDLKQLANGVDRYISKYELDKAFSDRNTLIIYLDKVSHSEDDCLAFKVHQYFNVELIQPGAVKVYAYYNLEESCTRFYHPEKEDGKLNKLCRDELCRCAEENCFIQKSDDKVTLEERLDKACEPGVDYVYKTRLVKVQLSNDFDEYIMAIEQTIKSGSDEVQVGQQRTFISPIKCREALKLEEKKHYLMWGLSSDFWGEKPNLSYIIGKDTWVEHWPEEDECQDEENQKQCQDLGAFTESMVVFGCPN
PROCEDURE_SUMMARY: cell-based or functional assay
Positions of bridges follow the written chain, without caps; N, C: chain ends. Non-standard residues stand in square brackets, D forms with d. Trp(1-Me) = Cn1cc(C[C@H](N)C(=O)O)c2ccccc21; 1Nal = N[C@@H](Cc1cccc2ccccc12)C(=O)O; Sar = CNCC(=O)O
READOUT: inhibition of hemolysis IC50

| BINDER | REPORTED |
| --- | --- |
| Ac-GE[Sar]CI[Trp(1-Me)]QDWGEHRCTEA-NH2 (disulfide 4-14; SMILES CC[C@H](C)[C@@H]1NC(=O)[C@@H](NC(=O)CN(C)C(=O)[C@H](CCC(=O)O)NC(=O)CNC(C)=O)CSSC[C@@H](C(=O)N[C@H](C(=O)N[C@@H](CCC(=O)O)C(=O)N[C@@H](C)C(N)=O)[C@@H](C)O)NC(=O)[C@H](CCCNC(=N)N)NC(=O)[C@H](Cc2c[nH]cn2)NC(=O)[C@H](CCC(=O)O)NC(=O)CNC(=O)[C@H](Cc2c[nH]c3ccccc23)NC(=O)[C@H](CC(=O)O)NC(=O)[C@H](CCC(N)=O)NC(=O)[C@H](Cc2cn(C)c3ccccc23)NC1=O) [Compound 88] | < 100 nM |
| Ac-ICIWQDWGAHRCTGAES-NH2 (disulfide 2-12; SMILES CC[C@H](C)[C@H](NC(C)=O)C(=O)N[C@H]1CSSC[C@@H](C(=O)N[C@H](C(=O)NCC(=O)N[C@@H](C)C(=O)N[C@@H](CCC(=O)O)C(=O)N[C@@H](CO)C(N)=O)[C@@H](C)O)NC(=O)[C@H](CCCNC(=N)N)NC(=O)[C@H](Cc2c[nH]cn2)NC(=O)[C@H](C)NC(=O)CNC(=O)[C@H](Cc2c[nH]c3ccccc23)NC(=O)[C@H](CC(=O)O)NC(=O)[C@H](CCC(N)=O)NC(=O)[C@H](Cc2c[nH]c3ccccc23)NC(=O)[C@H]([C@@H](C)CC)NC1=O) [Compound 47] | < 100 nM |
| Ac-FCI[1Nal]QDWGEHRCTGAES-NH2 (disulfide 2-12; SMILES CC[C@H](C)[C@@H]1NC(=O)[C@@H](NC(=O)[C@H](Cc2ccccc2)NC(C)=O)CSSC[C@@H](C(=O)N[C@H](C(=O)NCC(=O)N[C@@H](C)C(=O)N[C@@H](CCC(=O)O)C(=O)N[C@@H](CO)C(N)=O)[C@@H](C)O)NC(=O)[C@H](CCCNC(=N)N)NC(=O)[C@H](Cc2c[nH]cn2)NC(=O)[C@H](CCC(=O)O)NC(=O)CNC(=O)[C@H](Cc2c[nH]c3ccccc23)NC(=O)[C@H](CC(=O)O)NC(=O)[C@H](CCC(N)=O)NC(=O)[C@H](Cc2cccc3ccccc23)NC1=O) [Compound 63] | < 100 nM |
| Ac-EFCI[Trp(1-Me)]QDWGEHRCES-NH2 (disulfide 3-13; SMILES CC[C@H](C)[C@@H]1NC(=O)[C@@H](NC(=O)[C@H](Cc2ccccc2)NC(=O)[C@H](CCC(=O)O)NC(C)=O)CSSC[C@@H](C(=O)N[C@@H](CCC(=O)O)C(=O)N[C@@H](CO)C(N)=O)NC(=O)[C@H](CCCNC(=N)N)NC(=O)[C@H](Cc2c[nH]cn2)NC(=O)[C@H](CCC(=O)O)NC(=O)CNC(=O)[C@H](Cc2c[nH]c3ccccc23)NC(=O)[C@H](CC(=O)O)NC(=O)[C@H](CCC(N)=O)NC(=O)[C@H](Cc2cn(C)c3ccccc23)NC1=O) [Compound 85] | < 100 nM |
